target: EsaR (Pantoea stewartii subsp. stewartii); construct: expressed in transfected cells; host or cells: E. coli JLD271 (K12 ΔsdiA), arabinose-induced pJN105-esaR; assay: cell-based; settings: 3.5 h, read-out: EsaR-activated (pesaS) antagonism
Sequence (P54293 whole entry): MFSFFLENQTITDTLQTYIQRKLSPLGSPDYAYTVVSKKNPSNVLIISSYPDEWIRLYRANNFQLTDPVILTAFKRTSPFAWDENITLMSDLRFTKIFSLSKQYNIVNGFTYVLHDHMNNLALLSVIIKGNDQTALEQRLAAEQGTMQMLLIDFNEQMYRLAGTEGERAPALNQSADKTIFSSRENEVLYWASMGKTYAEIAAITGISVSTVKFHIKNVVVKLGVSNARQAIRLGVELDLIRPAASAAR
Binary call on inhibition at 100 µM: Yes from -30% upward, No beneath that.

Kindly determine if inhibition at 100 µM recorded for O=C(Cc1ccccc1)N[C@H]1CCOC1=O is above or exactly -30%. Yes

====

molecular target: EsaR (Pantoea stewartii subsp. stewartii); construct: expressed in transfected cells; host or cells: E. coli JLD271 (K12 ΔsdiA), arabinose-induced pJN105-esaR; experiment: cell-based; details: 3.5 h, read-out: EsaR-activated (pesaS) [%] agonism
Observable: activation at 100 µM (%)
Use % as the unit, but write only the number.

>>> experimental_result("O=C(Cc1ccc(I)cc1)N[C@H]1CCOC1=O [C10]")
7
>>> experimental_result("O=C(Cc1ccccc1Cl)N[C@H]1CCOC1=O [C7]")
10

// below: activation at 100 µM requested for another compound
Requested read-out: activation at 100 µM. Entry: O=C(Cc1ccccc1F)N[C@H]1CCOC1=O [C4] -1
